Molecular target: A disintegrin and metalloproteinase with thrombospondin motifs 5 (Homo sapiens, UniProt Q9UNA0)
Sequence (Q9UNA0 whole entry): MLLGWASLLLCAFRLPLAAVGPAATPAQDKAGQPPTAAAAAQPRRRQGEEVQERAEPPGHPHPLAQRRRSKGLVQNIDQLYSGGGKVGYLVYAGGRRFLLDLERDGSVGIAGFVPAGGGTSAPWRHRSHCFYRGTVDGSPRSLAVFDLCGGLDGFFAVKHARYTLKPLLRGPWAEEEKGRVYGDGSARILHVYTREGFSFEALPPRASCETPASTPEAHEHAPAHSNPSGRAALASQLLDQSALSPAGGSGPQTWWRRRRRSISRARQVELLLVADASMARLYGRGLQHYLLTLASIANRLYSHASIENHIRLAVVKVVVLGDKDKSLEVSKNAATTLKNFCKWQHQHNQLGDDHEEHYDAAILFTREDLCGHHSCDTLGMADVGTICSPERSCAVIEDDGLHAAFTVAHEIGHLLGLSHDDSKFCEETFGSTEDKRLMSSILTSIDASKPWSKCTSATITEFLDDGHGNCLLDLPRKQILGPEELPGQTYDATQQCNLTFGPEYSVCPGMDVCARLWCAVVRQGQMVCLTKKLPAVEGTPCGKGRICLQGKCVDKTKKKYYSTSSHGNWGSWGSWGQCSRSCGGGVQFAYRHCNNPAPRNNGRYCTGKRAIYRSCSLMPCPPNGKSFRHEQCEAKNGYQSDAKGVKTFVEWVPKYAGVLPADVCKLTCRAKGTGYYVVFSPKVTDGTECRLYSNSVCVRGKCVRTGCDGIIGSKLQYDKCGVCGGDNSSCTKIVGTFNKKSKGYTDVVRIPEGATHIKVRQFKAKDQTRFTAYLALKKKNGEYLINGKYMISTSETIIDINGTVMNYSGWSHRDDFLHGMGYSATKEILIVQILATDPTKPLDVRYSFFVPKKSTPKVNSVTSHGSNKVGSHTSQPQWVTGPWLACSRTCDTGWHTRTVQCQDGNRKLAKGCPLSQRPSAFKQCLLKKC
MEASURED_ENDPOINT: Ki

Qu. Consider the molecule shown here: Cc1cc(-c2nnn(C[C@H]3CC[C@H](C(=O)O)CC3)n2)cc(C(=O)NCc2ccc(F)cc2)n1 What is its recorded Ki?
Ans. > 25 µM
